System: Noggin (protein binding on small-molecule microarray)
Test: Noggin binders on small-molecule microarray, primary screen, biochemical, 635/667 nm fluorescence (AID 1095);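 note: score merges 667 nm feature fluorescence with signal to noise over triplicate slides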
Settings: 635 nm fluorescence, higher = more signal
Form field: composite z-score (one value per entry).
Keep it simple and answer with nothing but the number.

Incoming: Returns the measured composite z-score for the input compound. Input: `C[C@H]1Cc2c(-c3ccccc3)nc3c(c2CO1)CN(CCOc1ccccc1)CC3`
Outgoing: 0.472

Incoming: Report composite z-score for `CC(C)=NOCc1cccc(-c2cc(-c3ccccc3)no2)c1` please.
Outgoing: 0.7

Incoming: Could you tell me which composite z-score is on file for `C=CCNC(=O)[C@H]1[C@@H]2C(=O)O[C@@H](c3ccccc3)[C@@H](c3ccccc3)N2[C@@H](c2ccc(O)cc2)[C@]12C(=O)N(C(=O)OCCOC)c1ccc(C#CC3=CCCCC3)cc12` ?
Outgoing: 1.78

Incoming: Suppose we examine the compound `CC(=O)OC[C@H]1O[C@H](CC=NOC[C@@H](C)[C@H](OCc2ccccc2)C(C)C)C=C[C@@H]1OC(C)=O` ; what composite z-score value has been reported?
Outgoing: 0.259
